Cited source: the supplement of paper PMC9112550

- Test system: Escherichia coli TOP10
- assay_comment: shrunken log2 fold change of peptide-encoding DNA abundance (4.5 h post-induction vs induction); higher = less antimicrobial activity (less host growth inhibition)
- assay_context: time post-induction: 4.5 h; library: site-saturation at positions 5, 18, 19, 20

>  <sequence_data>
RRIRNRPPRLPRPRPRPKTIPRP

>  <shrunken log2 fold change>
-0.14

$$$$
>  <sequence_data>
RRIRHRPPRLPRPRPRPDEEPRP

>  <shrunken log2 fold change>
-0.0946

$$$$
>  <sequence_data>
RRIRCRPPRLPRPRPRPNTEPRP

>  <shrunken log2 fold change>
-0.161

$$$$
>  <sequence_data>
RRIRSRPPRLPRPRPRPLNSPRP

>  <shrunken log2 fold change>
-0.327

$$$$
>  <sequence_data>
RRIRVRPPRLPRPRPRPQLVPRP

>  <shrunken log2 fold change>
-0.048

$$$$
>  <sequence_data>
RRIRARPPRLPRPRPRPRYQPRP

>  <shrunken log2 fold change>
-0.274

$$$$
>  <sequence_data>
RRIRFRPPRLPRPRPRPYGKPRP

>  <shrunken log2 fold change>
-0.514

$$$$
>  <sequence_data>
RRIRQRPPRLPRPRPRPELHPRP

>  <shrunken log2 fold change>
0.0795

$$$$
>  <sequence_data>
RRIRTRPPRLPRPRPRPDETPRP

>  <shrunken log2 fold change>
0.0482

$$$$
>  <sequence_data>
RRIRDRPPRLPRPRPRPNKVPRP

>  <shrunken log2 fold change>
-0.494

$$$$
>  <sequence_data>
RRIRARPPRLPRPRPRPHRTPRP

>  <shrunken log2 fold change>
-0.115

$$$$
>  <sequence_data>
RRIRARPPRLPRPRPRPCMYPRP

>  <shrunken log2 fold change>
-0.49

$$$$
>  <sequence_data>
RRIRQRPPRLPRPRPRPYHKPRP

>  <shrunken log2 fold change>
0.0375

$$$$
>  <sequence_data>
RRIRDRPPRLPRPRPRPDLSPRP

>  <shrunken log2 fold change>
0.0253

$$$$
>  <sequence_data>
RRIRKRPPRLPRPRPRPFELPRP

>  <shrunken log2 fold change>
-0.000946

$$$$
>  <sequence_data>
RRIRHRPPRLPRPRPRPRYIPRP

>  <shrunken log2 fold change>
-0.528

$$$$
>  <sequence_data>
RRIRYRPPRLPRPRPRPPEVPRP

>  <shrunken log2 fold change>
-0.142

$$$$
>  <sequence_data>
RRIRLRPPRLPRPRPRPSGEPRP

>  <shrunken log2 fold change>
0.0911

$$$$
>  <sequence_data>
RRIRKRPPRLPRPRPRPMNKPRP

>  <shrunken log2 fold change>
0.0136

$$$$
>  <sequence_data>
RRIRCRPPRLPRPRPRPNDVPRP

>  <shrunken log2 fold change>
-0.215

$$$$
>  <sequence_data>
RRIRFRPPRLPRPRPRPETRPRP

>  <shrunken log2 fold change>
0.159

$$$$
>  <sequence_data>
RRIRARPPRLPRPRPRPTLSPRP

>  <shrunken log2 fold change>
0.801

$$$$
>  <sequence_data>
RRIRTRPPRLPRPRPRPLHMPRP

>  <shrunken log2 fold change>
-0.369

$$$$
>  <sequence_data>
RRIRFRPPRLPRPRPRPWPAPRP

>  <shrunken log2 fold change>
-0.0371

$$$$
>  <sequence_data>
RRIRYRPPRLPRPRPRPNFIPRP

>  <shrunken log2 fold change>
-1.22

$$$$
>  <sequence_data>
RRIRDRPPRLPRPRPRPIEHPRP

>  <shrunken log2 fold change>
-0.172

$$$$
>  <sequence_data>
RRIRKRPPRLPRPRPRPDTIPRP

>  <shrunken log2 fold change>
0.163

$$$$
>  <sequence_data>
RRIRRRPPRLPRPRPRPEMWPRP

>  <shrunken log2 fold change>
1.14

$$$$
>  <sequence_data>
RRIRSRPPRLPRPRPRPFTGPRP

>  <shrunken log2 fold change>
-0.261

$$$$
>  <sequence_data>
RRIRHRPPRLPRPRPRPRDTPRP

>  <shrunken log2 fold change>
0.123

$$$$
>  <sequence_data>
RRIRIRPPRLPRPRPRPEPMPRP

>  <shrunken log2 fold change>
0.132

$$$$
>  <sequence_data>
RRIRQRPPRLPRPRPRPHTSPRP

>  <shrunken log2 fold change>
0.0894

$$$$

###

- Tested on: Escherichia coli TOP10
- assay_comment: shrunken log2 fold change of peptide-encoding DNA abundance (4.5 h post-induction vs induction); higher = less antimicrobial activity (less host growth inhibition)
- assay_context: time post-induction: 4.5 h; library: site-saturation at positions 5, 18, 19, 20
assay_endpoint: shrunken log2 fold change

>  <sequence_data>
RRIRGRPPRLPRPRPRPMNHPRP

>  <recorded_measurement>
0.116

$$$$
>  <sequence_data>
RRIRARPPRLPRPRPRPIMIPRP

>  <recorded_measurement>
-0.261

$$$$
>  <sequence_data>
RRIRQRPPRLPRPRPRPAYCPRP

>  <recorded_measurement>
-0.043

$$$$
>  <sequence_data>
RRIRNRPPRLPRPRPRPLQNPRP

>  <recorded_measurement>
0.176

$$$$
>  <sequence_data>
RRIRQRPPRLPRPRPRPMCYPRP

>  <recorded_measurement>
-0.01

$$$$
>  <sequence_data>
RRIRCRPPRLPRPRPRPWWYPRP

>  <recorded_measurement>
-0.136

$$$$
>  <sequence_data>
RRIRKRPPRLPRPRPRPCIQPRP

>  <recorded_measurement>
0.0636

$$$$
>  <sequence_data>
RRIRKRPPRLPRPRPRPAHIPRP

>  <recorded_measurement>
-0.137

$$$$
>  <sequence_data>
RRIRLRPPRLPRPRPRPDKHPRP

>  <recorded_measurement>
-0.971

$$$$
>  <sequence_data>
RRIRSRPPRLPRPRPRPVWLPRP

>  <recorded_measurement>
-0.388

$$$$
>  <sequence_data>
RRIRSRPPRLPRPRPRPDLPPRP

>  <recorded_measurement>
-0.246

$$$$
>  <sequence_data>
RRIRPRPPRLPRPRPRPKADPRP

>  <recorded_measurement>
0.0968

$$$$
>  <sequence_data>
RRIRHRPPRLPRPRPRPGAHPRP

>  <recorded_measurement>
-0.457

$$$$
>  <sequence_data>
RRIRMRPPRLPRPRPRPFWVPRP

>  <recorded_measurement>
-0.0112

$$$$
>  <sequence_data>
RRIRQRPPRLPRPRPRPIGFPRP

>  <recorded_measurement>
-0.0702

$$$$
>  <sequence_data>
RRIRRRPPRLPRPRPRPMAAPRP

>  <recorded_measurement>
1.15

$$$$
>  <sequence_data>
RRIRIRPPRLPRPRPRPTQWPRP

>  <recorded_measurement>
-0.136

$$$$
>  <sequence_data>
RRIRERPPRLPRPRPRPLVQPRP

>  <recorded_measurement>
0.0736

$$$$
>  <sequence_data>
RRIRARPPRLPRPRPRPCTFPRP

>  <recorded_measurement>
-0.365

$$$$
>  <sequence_data>
RRIRARPPRLPRPRPRPVTNPRP

>  <recorded_measurement>
0.275

$$$$
>  <sequence_data>
RRIRHRPPRLPRPRPRPRNPPRP

>  <recorded_measurement>
0.0812

$$$$
>  <sequence_data>
RRIRLRPPRLPRPRPRPNYPPRP

>  <recorded_measurement>
-0.156

$$$$
>  <sequence_data>
RRIRCRPPRLPRPRPRPGSQPRP

>  <recorded_measurement>
0.0392

$$$$
>  <sequence_data>
RRIRWRPPRLPRPRPRPVMHPRP

>  <recorded_measurement>
-0.119

$$$$
>  <sequence_data>
RRIRNRPPRLPRPRPRPDPDPRP

>  <recorded_measurement>
0.0692

$$$$
>  <sequence_data>
RRIRRRPPRLPRPRPRPEPTPRP

>  <recorded_measurement>
0.543

$$$$
>  <sequence_data>
RRIRSRPPRLPRPRPRPMYQPRP

>  <recorded_measurement>
-0.594

$$$$
>  <sequence_data>
RRIRMRPPRLPRPRPRPSVWPRP

>  <recorded_measurement>
0.275

$$$$
>  <sequence_data>
RRIRWRPPRLPRPRPRPHELPRP

>  <recorded_measurement>
-0.0349

$$$$
>  <sequence_data>
RRIRARPPRLPRPRPRPFGLPRP

>  <recorded_measurement>
2.49

$$$$
>  <sequence_data>
RRIRHRPPRLPRPRPRPSYSPRP

>  <recorded_measurement>
-0.314

$$$$
>  <sequence_data>
RRIRWRPPRLPRPRPRPGLGPRP

>  <recorded_measurement>
0.83

$$$$

###

- System: Escherichia coli TOP10;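 note: peptides expressed intracellularly from a pBAD plasmid library in pooled LB shake-flask culture, induced with 0.3% L-arabinose, DNA abundance read by NGS, three biological replicates, DESeq2 with apeglm shrinkage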
- assay_comment: shrunken log2 fold change of peptide-encoding DNA abundance (4.5 h post-induction vs induction); higher = less antimicrobial activity (less host growth inhibition)
- assay_context: time post-induction: 4.5 h; library: site-saturation at positions 5, 18, 19, 20
# shrunken log2 fold change >= -0.09 gives TRUE, anything below gives FALSE

>  <sequence_data>
RRIRFRPPRLPRPRPRPFLIPRP

>  <class_label>
FALSE

$$$$
>  <sequence_data>
RRIRDRPPRLPRPRPRPHPWPRP

>  <class_label>
TRUE

$$$$
>  <sequence_data>
RRIRHRPPRLPRPRPRPMASPRP

>  <class_label>
TRUE

$$$$
>  <sequence_data>
RRIRWRPPRLPRPRPRPIAVPRP

>  <class_label>
TRUE

$$$$
>  <sequence_data>
RRIRSRPPRLPRPRPRPSYKPRP

>  <class_label>
FALSE

$$$$
>  <sequence_data>
RRIRPRPPRLPRPRPRPVLNPRP

>  <class_label>
FALSE

$$$$
>  <sequence_data>
RRIRHRPPRLPRPRPRPKRLPRP

>  <class_label>
TRUE

$$$$
>  <sequence_data>
RRIRFRPPRLPRPRPRPHSDPRP

>  <class_label>
FALSE

$$$$
